meta.source: PubChem BioAssay (NCI)

Test system: SF-539 CNS
Assay: NCI tumour cell line growth inhibition, 48 h
READOUT: TGI (µM)
Your answer is read as µM, so omit the unit and give the number.

Query: Please report the recorded TGI for `C[C@H]1[C@H](C)CC[C@]2(C(=O)O)CC[C@]3(C)C(=CC[C@@H]4[C@@]5(C)CC[C@H](OC(=O)/C=C/c6ccc(O)cc6)C(C)(C)[C@@H]5CC[C@]43C)[C@H]12` .
Response: 10.2

Query: # lookup: TGI of `CC(C)=C[C@@H]1C[C@H](C)c2c(O)cc(C)c3c2C1=C(C)C(=O)C3=O`
Response: 32.3

Query: Requested field: TGI. Item: `O=C(Nc1nnc(-c2c(Cl)c(Cl)c(Cl)c(Cl)c2-c2nc3cc(C(=O)c4ccccc4)ccc3[nH]2)o1)c1ccccc1`
Response: 23.7

Query: Dear colleague, I am looking for the recorded TGI of the following molecule: `CN(C)CCCNc1ccnc2cc([N+](=O)[O-])ccc12`
Response: 31.9

====

Give TGI for every item shown.
Test system: COLO 205 colon
Test: NCI tumour cell line growth inhibition, 48 h

Query: # input compound: Cc1cc2c(cc1C)C(=O)C1(C2)Cc2c(ccc(C)c2C)C1=O (stereo not given) ; wanted: its TGI
Response: > 100 µM

Query: I am curious: what TGI value has been reported for `C[C@H]1[C@H](C)CC[C@]2(C(=O)O)CC[C@]3(C)C(=CC[C@@H]4[C@@]5(C)CC[C@H](OC(=O)/C=C/c6ccc(O)cc6)C(C)(C)[C@@H]5CC[C@]43C)[C@H]12` ?
Response: > 50.3 µM

Query: TGI; subject: `CCCN(CCC)c1cc2c(cc1F)c(=O)c(C(=O)O)cn2-c1ccc(N2CCN(C)CC2)cn1`
Response: 27.1 µM

Query: Bench note: what TGI did `NC(=O)Nc1cc(O)ccc1N=Nc1ccc(S(=O)(=O)Nc2ccccn2)cc1` show?
Response: > 100 µM

Query: What value of TGI has been recorded for this entry: CC1(Br)C(=O)NC(=O)N(C2CC(N=[N+]=[N-])C(CO)O2)C1N=[N+]=[N-] (stereo not given)
Response: > 100 µM

Query: Recorded TGI of `Cc1cc(S(=O)(=O)n2ccnc2Oc2ccccc2)c(SSc2cc(Cl)c(C)cc2S(=O)(=O)n2ccnc2Oc2ccccc2)cc1Cl` , please.
Response: > 100 µM

Query: Record request: TGI value, item `CCc1ccc(Nc2cc(=O)[nH]c(=S)n2C)cc1`
Response: > 100 µM

Query: I am curious: what TGI value has been reported for `O=C1C[C@@H](Sc2ccccc2)C2(OCCO2)[C@H]2ON3CCC[C@@H]3[C@@H]12` ?
Response: 6.32 µM

Query: Could you tell me which TGI is on file for `COc1cc2ccnc(-c3c4ccccc4c(N)c4c(OC)c(OC)ccc34)c2cc1OC` ?
Response: 3.09 µM

Query: What value of TGI has been reported for the following compound? `N#CCN1CCOCCOCCN(CC#N)CCOCCOCC1`
Response: > 100 µM

Query: Item COCOCC1CCCN1CN1CCC[C@H]1COCOC (stereo not given in full) has what recorded TGI?
Response: > 100 µM

Query: Sample `COc1cccc(-n2ncc3c(N/N=C/c4ccc(S(C)(=O)=O)cc4)ncnc32)c1` — what was its TGI?
Response: > 25 µM

Query: Fill blank: measured TGI of the compound CCOC(=O)N1N=NC2C3OC(C[C@@]3(C#N)OC(C)=O)[C@H]21 (stereo not given in full) is ____.
Response: > 100 µM

Query: Value lookup for TGI; key = CC(=O)OC1C/C(C)=C/CCC(C)/C=C/C2(C)CCC(C(C)(C)O)C12 (stereo not given)
Response: > 100 µM

Query: Value lookup for TGI; key = `Nc1nc(N)c(N=O)c(Nc2ccc(I)cc2)n1`
Response: 33.2 µM

Query: # get_value(readout='TGI', item= `CO/N=C(/COc1c(-c2ccccc2)oc2ccccc2c1=O)c1ccc(OC)cc1` )
Response: > 100 µM

Query: Please give the measured TGI for this compound: `N#Cc1cccc(/C=C(/C(=O)c2ccccc2)c2ccccc2)c1`
Response: 20 µM

Query: # lookup: TGI of `Cc1nc2ccccc2c(=O)n1NC(=S)Nc1cccc(Cl)c1`
Response: > 100 µM

Query: Name the reported TGI value associated with the compound Nc1nc(Cl)cc(NCC2(CO)CCC(O)C2)n1 (stereo not given)
Response: > 100 µM

Query: Returns the measured TGI for the input compound. Input: O=C(O)Cc1cccc2c1OC(c1ccccc1)C(C(=O)c1ccccc1)C2=O (stereo not given)
Response: > 100 µM
